Source: ChEMBL document CHEMBL1909046

protocolDetails: DRUGMATRIX: Interleukin IL-1 radioligand binding (ligand: [125I] interleukin 1beta)
Assay type: cell membranes, Membrane
statedConditions: nih3t3; Not Active = under 50% inhibition at 10 µM
resultType: Ki

The examples below pair each entry with its known result.
COc1c(C)c2c(c(O)c1C/C=C(\C)CCC(=O)O)C(=O)OC2; Not Active
CO[C@H]1/C=C/O[C@@]2(C)Oc3c(C)c(O)c4c(O)c(c(/C=N/N5CCN(C)CC5)c(O)c4c3C2=O)NC(=O)/C(C)=C\C=C\[C@H](C)[C@H](O)[C@@H](C)[C@@H](O)[C@@H](C)[C@H](OC(C)=O)[C@@H]1C; Not Active
CC(C)CN(C[C@@H](O)[C@H](Cc1ccccc1)NC(=O)O[C@H]1CCOC1)S(=O)(=O)c1ccc(N)cc1; Not Active
CC1(C)S[C@@H]2[C@H](NC(=O)Cc3ccccc3)C(=O)N2[C@H]1C(=O)O; Not Active
Cc1oncc1C(=O)Nc1ccc(C(F)(F)F)cc1 [LEFLUNOMIDE]; Not Active

The molecule listed as O=NN(CCCl)C(=O)NC1CCCCC1 shows Ki equal to Not Active

The molecule listed as NC1=NC(=O)C(c2ccccc2)O1 (stereo unspecified) shows Ki equal to Not Active

The molecule listed as CCCN1C[C@H](CSC)C[C@@H]2c3cccc4[nH]cc(c34)C[C@H]21 [PERGOLIDE] shows Ki equal to Not Active

* * *

systemName: 5-hydroxytryptamine receptor 4 (Cavia porcellus, UniProt O70528); further: in other assays of this panel Not Active means under 50% inhibition at 10 µM
Sequence (O70528 whole entry): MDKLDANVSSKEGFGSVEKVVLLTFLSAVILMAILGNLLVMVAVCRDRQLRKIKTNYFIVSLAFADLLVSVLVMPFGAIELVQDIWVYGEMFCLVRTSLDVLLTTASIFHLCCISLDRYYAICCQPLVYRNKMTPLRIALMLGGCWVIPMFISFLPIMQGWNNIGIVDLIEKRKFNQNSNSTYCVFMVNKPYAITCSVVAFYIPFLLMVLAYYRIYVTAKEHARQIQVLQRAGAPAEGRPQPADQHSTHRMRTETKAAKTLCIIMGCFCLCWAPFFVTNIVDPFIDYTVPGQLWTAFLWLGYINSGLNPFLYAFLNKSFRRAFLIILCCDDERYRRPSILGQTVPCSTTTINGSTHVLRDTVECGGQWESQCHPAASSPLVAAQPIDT
Type: cell membranes, Dunkin-Hartley, Striatum, Membrane
statedConditions: read-out: IC50
resultType: pIC50
Note on units: pIC50 is unitless, being -log10 of a concentration expressed in mol/L.

The examples below pair each entry with its known result.
CC(C)[C@@]1(NC(=O)[C@@H]2C[C@@H]3c4cccc5[nH]cc(c45)C[C@H]3N(C)C2)O[C@@]2(O)[C@@H]3CCCN3C(=O)[C@H](Cc3ccccc3)N2C1=O.CS(=O)(=O)O [DIHYDROERGOCRISTINE MESYLATE]; 5.31
CN1CCN(CCCN2c3ccccc3Sc3ccc(Cl)cc32)CC1 [PROCHLORPERAZINE]; 5.93
CC(C)C(=O)Nc1ccc([N+](=O)[O-])c(C(F)(F)F)c1 [FLUTAMIDE]; 4.87
CC(C)N1CCN(c2ccc(OCC3COC(Cn4cncn4)(c4ccc(Cl)cc4Cl)O3)cc2)CC1 (stereo unspecified) [TERCONAZOLE]; 4.83
COc1cc2nc(N3CCN(C(=O)C4COc5ccccc5O4)CC3)nc(N)c2cc1OC (stereo unspecified) [DOXAZOSIN]; 6.12

The compound listed as O=C(CCCN1CC=C(n2c(=O)[nH]c3ccccc32)CC1)c1ccc(F)cc1 [DROPERIDOL] shows pIC50 equal to 5.42

* * *

systemName: Mitogen-activated protein kinase 1 (Homo sapiens)
Sequence (P28482 whole entry): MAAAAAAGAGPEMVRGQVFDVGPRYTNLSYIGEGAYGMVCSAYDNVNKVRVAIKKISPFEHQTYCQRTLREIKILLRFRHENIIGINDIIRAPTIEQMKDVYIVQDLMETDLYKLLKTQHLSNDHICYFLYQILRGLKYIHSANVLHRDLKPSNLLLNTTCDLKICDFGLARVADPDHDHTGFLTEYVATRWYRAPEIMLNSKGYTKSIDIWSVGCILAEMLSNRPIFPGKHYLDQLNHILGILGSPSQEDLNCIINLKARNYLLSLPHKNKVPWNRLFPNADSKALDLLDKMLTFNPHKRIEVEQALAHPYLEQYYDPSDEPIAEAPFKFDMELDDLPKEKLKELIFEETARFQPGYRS
protocolDetails: DRUGMATRIX: Protein Serine/Threonine Kinase, ERK2 enzyme inhibition (substrate: Myelin Basic Protein)
Parameters: species or system Escherichia coli
statedConditions: Not Active = under 50% inhibition at 10 µM; read-out: IC50
resultType: pIC50
Note on units: pIC50 is unitless, being -log10 of a concentration expressed in mol/L.

# lookup: LIPOPOLYSACCHARIDE E. COLI O55:B5 on Mitogen-activated protein kinase 1 (Homo sapiens), pIC50 = 6.49
